Biological target: GDP-bound KRAS protein (aa 1-169), containing both G12D and C118A amino acid substitutions (Homo sapiens (Human), UniProt P01116, C118A/G12D)
Sequence (P01116 other isoform, or with tags, fused parts or gaps G12D/C118A): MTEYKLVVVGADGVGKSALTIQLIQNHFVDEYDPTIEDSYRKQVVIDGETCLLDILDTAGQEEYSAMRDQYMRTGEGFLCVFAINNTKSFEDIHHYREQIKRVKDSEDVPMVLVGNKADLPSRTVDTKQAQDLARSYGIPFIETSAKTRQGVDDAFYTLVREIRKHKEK
Experiment: KRAS G12D Coupled Nucleotide Exchange Assay
Type: biochemical
Conditions: read-out: KRAS G12D Coupled Exchange IC50
Record form. Attribute: pIC50. Fill in for each entry.
# reply with the number alone; pIC50 is -log10 of concentration in mol/L

For the compound CN1C(=O)CCCc2c(F)ccc3cccc(c23)-c2ncc3c(nc(OC[C@@]45CCCN4C[C@H](F)C5)nc3c2F)N2CCC[C@]1(C)C2 [Example 167] , give its measured pIC50 value.
7.70

For the compound C[C@@]12COCCN(C1)c1nc(OC[C@@H]3CC[C@H]4COCCN43)nc3c(F)c(ncc13)-c1c(c(Cl)cc3[nH]ncc13)CCCOC(=O)O2 [Example 309] , give its measured pIC50 value.
8.40

For the compound O=C1COCCCc2c(Cl)cc3[nH]ncc3c2-c2ncc3c(nc(OC[C@@]45CCCN4C[C@H](F)C5)nc3c2F)N2CC[C@H]3CCN1[C@H]3C2 [Example 168] , give its measured pIC50 value.
9.00

For the compound C[C@@]12CCCCN(C1)c1nc(OC[C@@]34CCCN3C[C@H](F)C4)nc3c(F)c(ncc13)-c1c(c(Cl)cc3[nH]ncc13)CCCCC(=O)N2 [Example 166] , give its measured pIC50 value.
8.52

For the compound CN1C(=O)COCC[C@H]2CCc3cc4[nH]ncc4c(c32)-c2ncc3c(nc(OC[C@@]45CCCN4C[C@H](F)C5)nc3c2F)N2CCC[C@@H]1C2 [Example 278] , give its measured pIC50 value.
5.23

For the compound Cc1cc2[nH]ncc2c2c1CCCCCC(=O)N[C@]1(C)CCCN(C1)c1nc(OC[C@@]34CCCN3C[C@H](F)C4)nc3c(F)c-2ncc13 [Example 21] , give its measured pIC50 value.
7.37

For the compound O=C1CCCCc2c(Cl)cc3[nH]ncc3c2-c2ncc3c(nc(OC[C@@]45CCCN4C[C@H](F)C5)nc3c2F)N2CCCC[C@H](C2)O1 [Example 82] , give its measured pIC50 value.
9.00

For the compound O=C1N[C@@H]2CCCCN(C2)c2nc(OC[C@@]34CCCN3C[C@H](F)C4)nc3c(F)c(ncc23)-c2c(c(Cl)cc3[nH]ncc23)CCCO1 [Example 256] , give its measured pIC50 value.
8.30

For the compound Cc1c2ncc3c(nc(OC[C@]45CC[C@@H](CC4)C(=O)N5)nc13)N1CCC[C@](C)(C1)NC(=O)CCCc1c(F)ccc3cc(O)cc-2c13 [Example 25] , give its measured pIC50 value.
8.15

For the compound Fc1c2ncc3c(nc(OC[C@@]45CCCN4C[C@H](F)C5)nc13)N1CCC[C@]3(C1)C[C@H](C3)OCCCCc1c(Cl)cc3[nH]ncc3c1-2 [Example 260] , give its measured pIC50 value.
8.70

For the compound Cc1cc2[nH]ncc2c2c1CCCCC(=O)N[C@]1(C)CCCCN(C1)c1nc(OC[C@@]34CCCN3C[C@H](F)C4)nc3c(F)c-2ncc13 [Example 280] , give its measured pIC50 value.
8.52

For the compound Cc1cc2[nH]ncc2c2c1CCOC(=O)OC[C@@H]1CCCN(C1)c1nc(OC[C@@]34CCCN3C[C@H](F)C4)nc3c(F)c-2ncc13 [Example 126, bis(2,2,2-trifluoroacetate)] , give its measured pIC50 value.
9.00
